Hello, the source for this data is patent US12275733B2, in case you need it.

Tested on: primary human chondrocyte pellet cultures
TEST_METHOD_NOTES: Chondrogenesis activity assay in primary human chondrocyte pellet cultures (proteoglycan (aggrecan) induction, Blyscan assay)
Type: cell-based
PARTICULARS: Homo sapiens, Chondrocyte; maximum percent proteoglycan (aggrecan) induction relative to the internal reference compound at 10 μM
Known Emax of a selection of compounds

Here is how some compounds turned out for Emax.
Query block: GET /values?readout=Emax&system=primary human chondrocyte pellet cultures&item= FC(F)(F)Cn1c2cnccc2c2cc(Cl)cc(-c3cnn(-c4ccccc4)c3)c21
Result block: 40 to 100%

Query block: One more compound: Cc1nccc2c1[nH]c1c(-c3cccc(C=O)c3)cc(Cl)cc12
Result block: 100 to 200%

Query block: One more compound: Cc1nccc2c1[nH]c1c(-c3ccc(OCc4nccc5ccccc45)cc3)cc(Cl)cc12
Result block: 40 to 100%

Query block: One more compound: CCn1c2c(-c3cnn(C)c3)cc(Br)cc2c2ccnc(C)c21
Result block: > 200%

Query block: One more compound: Clc1cc(-c2cnn(Cc3cccnc3)c2)c2c(c1)c1ccncc1n2CC1CC1
Result block: > 200%

More entries:
Query block: GET /values?readout=Emax&system=primary human chondrocyte pellet cultures&item= Cc1nccc2c1[nH]c1c(-c3ccc(OCCn4cccn4)cc3)cc(Cl)c(C)c12
Result block: 40 to 100%

Query block: One more compound: COc1ccc(-c2cc(Cl)cc3c2[nH]c2c(C)nccc23)nc1N
Result block: < 40%

Query block: One more compound: COC(=O)c1cc2c([nH]c3c(-c4ccc(Cl)nc4Cl)cc(Cl)cc32)c(C)n1
Result block: < 40%

Query block: One more compound: Cc1nccc2c1[nH]c1c(-c3cccc(C(=O)NCCN(C)C)c3)cc(Cl)cc12
Result block: < 40%

Query block: One more compound: COCc1cc(-c2cc(Cl)cc3c2[nH]c2c(C)nccc23)ccc1OC
Result block: 100 to 200%
